Target: human V1a receptor (Homo sapiens)
Sequence (P37288 whole entry): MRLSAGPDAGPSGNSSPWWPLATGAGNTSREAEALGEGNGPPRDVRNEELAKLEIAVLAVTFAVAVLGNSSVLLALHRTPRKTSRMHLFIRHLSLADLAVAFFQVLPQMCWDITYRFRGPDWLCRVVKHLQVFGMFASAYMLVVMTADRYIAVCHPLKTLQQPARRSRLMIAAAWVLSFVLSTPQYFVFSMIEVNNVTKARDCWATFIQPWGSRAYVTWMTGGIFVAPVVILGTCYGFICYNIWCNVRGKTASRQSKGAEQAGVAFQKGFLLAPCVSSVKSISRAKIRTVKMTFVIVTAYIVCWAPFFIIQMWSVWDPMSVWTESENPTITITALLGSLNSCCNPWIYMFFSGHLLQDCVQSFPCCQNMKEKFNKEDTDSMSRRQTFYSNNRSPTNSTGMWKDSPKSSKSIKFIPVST
Assay: Cellular in vitro assay for vasopressin receptor activity, V1a cell line (aequorin luminescence)
Conditions: CHO cell line transfected with human V1a receptor; agonist [Arg8]-vasopressin at EC50 concentration; read-out: IC50hV1a
Attribute: pIC50
# pIC50 is unitless: minus log10 of the molar concentration; print number only

1) CC(F)c1nc(Cn2nc(-c3ccc(Cl)cc3)n(C[C@H](O)C(F)(F)F)c2=O)nn1-c1ccccc1C(F)(F)F (single isomer, unassigned) [Example 24] ... 8.96

Entry Cc1cccc(C)c1-n1nc(Cn2nc(-c3ccc(Cl)cc3)n(C[C@H](O)C(F)(F)F)c2=O)nc1C(C)F (mixture of isomers) , system human V1a receptor (Homo sapiens): what pIC50 was measured? 8.49

Entry CCc1ccccc1-n1nc(Cn2nc(-c3ccc(Cl)cc3)n(C[C@H](O)C(F)(F)F)c2=O)nc1C(C)F (single isomer, unassigned) [Example 30] , system human V1a receptor (Homo sapiens): what pIC50 was measured? 8.73

Entry CC(F)c1nc(Cn2nc(-c3ccc(Cl)cc3)n(C[C@H](O)C(F)(F)F)c2=O)nn1-c1ccccc1S(N)(=O)=O (mixture of isomers) , system human V1a receptor (Homo sapiens): what pIC50 was measured? 7.07

----------
Target: UniProt P37288
Test: Cellular in vitro assay for vasopressin receptor activity, V1a cell line (aequorin luminescence)
Details: CHO cell line transfected with human V1a receptor; agonist [Arg8]-vasopressin at EC50 concentration; read-out: IC50hV1a
Experimental: B-1. Cellular In Vitro Assay for Determining Vasopressin Receptor Activity The identification of agonists and antagonists of the V1a and V2 vasopressin receptors from humans, rats and dogs as well as the quantification of the activity of the compounds of the invention is carried out using recombinant cell lines. […] The bioluminescence of the cell lines is detected using a suitable luminometer [Milligan G, Marshall F, Rees S, Trends in Pharmacological Sciences 17, 235-237 (1996)]. […]
Attribute: pIC50
# pIC50 is unitless: minus log10 of the molar concentration; print number only

1) CC(F)c1nc(Cn2nc(-c3ccc(Cl)cc3)n(C[C@H](O)C(F)(F)F)c2=O)nn1-c1ccccc1C#N (single isomer, unassigned) [Example 39] ... 7.65

Given the entry CSc1ccccc1-n1nc(Cn2nc(-c3ccc(Cl)cc3)n(C[C@H](O)C(F)(F)F)c2=O)nc1C(C)(F)F [Example 74] , report its measured pIC50. 8.85

Given the entry Cc1ccccc1-n1nc(Cn2nc(-c3ccc(Cl)cc3)n(C[C@H](O)C(F)(F)F)c2=O)nc1C(C)(F)F [Example 64] , report its measured pIC50. 8.97

Given the entry CC(F)c1nc(Cn2nc(-c3ccc(Cl)cc3)n(C[C@H](O)C(F)(F)F)c2=O)nn1-c1cccc(F)c1 (single isomer, unassigned) [Example 15] , report its measured pIC50. 7.90

Given the entry CC(F)c1nc(Cn2nc(-c3ccc(Cl)cc3)n(C[C@H](O)C(F)(F)F)c2=O)nn1-c1ncccc1Cl (mixture of isomers) [Example 19] , report its measured pIC50. 8.55

Given the entry Cc1cccc(C)c1-n1nc(Cn2nc(-c3ccc(Cl)cc3)n(C[C@H](O)C(F)(F)F)c2=O)nc1C(C)(F)F [Example 71] , report its measured pIC50. 8.28

Given the entry CC(C)c1ccccc1-n1nc(Cn2nc(-c3ccc(Cl)cc3)n(C[C@H](O)C(F)(F)F)c2=O)nc1C(C)F (mixture of isomers) [Example 47] , report its measured pIC50. 7.52

Given the entry CC(F)c1nc(Cn2nc(-c3ccc(Cl)cc3)n(C[C@H](O)C(F)(F)F)c2=O)nn1-c1c(Cl)cccc1Cl (mixture of isomers) [Example 43] , report its measured pIC50. 8.69

Given the entry CC(F)c1nc(Cn2nc(-c3ccc(Cl)cc3)n(C[C@H](O)C(F)(F)F)c2=O)nn1-c1ccccc1C#N (mixture of isomers) [Example 38] , report its measured pIC50. 7.09

Given the entry CC(F)(F)c1nc(Cn2nc(-c3ccc(Cl)cc3)n(C[C@H](O)C(F)(F)F)c2=O)nn1-c1c(F)cccc1F [Example 70] , report its measured pIC50. 8.76
